Sourced from patent US11512042B2

experiment: UV absorbance spectrum in solution (λmax, λcrit, extinction coefficients); type: physicochemical; conditions: mass extinction coefficient
Label met when E (1%, 1 cm) is strictly below 800; at or above that, label not met.

Example entries and their recorded answers appear below.
{"columns": ["MOLECULE", "LABEL_VALUE"],
 "data": [
  ["COC(=O)c1ccc2c(c1)CCN2/C=C(/C(=O)C(=O)OC(C)(C)C(=O)OC)c1ccccc1", "not met"],
  ["CCN(/C=C(/C(=O)C(=O)OC(C)(C)C)c1ccccc1)c1ccccc1", "met"],
  ["Cc1ccccc1N(/C=C(\\C(=O)C(F)(F)F)c1ccccc1)c1ccccc1", "met"]
]}

## Input Decide: E (1%, 1 cm) of O=C(/C(=C/N1CCc2ccccc21)c1ccccc1)c1ccccc1 strictly below 800?
## Output not met

## Input Please state whether E (1%, 1 cm) is below 800 for CC1(C)CN(/C=C(\C(=O)C(F)(F)F)c2ccccc2)c2ccccc21
## Output not met

## Input Quick check: E (1%, 1 cm) of CCCCC(CC)COC(=O)c1ccc(N(/C=C(\C(=O)C(F)(F)F)c2ccccc2)CC)cc1 (stereo not drawn) under 800?
## Output met

## Input Find out if reported E (1%, 1 cm) for O=C(/C(=C\N1CCCCc2ccccc21)c1ccccc1)C(F)(F)F is less than 800
## Output not met

## Input I wonder whether CCCN(/C=C(/C(=O)C(F)(F)F)c1ccccc1)c1ccccc1 has E (1%, 1 cm) below 800. Can you tell?
## Output met

## Input Take the molecule CCN(/C=C(/C(=O)c1ccccc1)c1ccccc1)c1ccccc1 and say whether its E (1%, 1 cm) is less than 800.
## Output met

## Input # check: E (1%, 1 cm) < 800 for CCN(/C=C(/C(=O)c1ccc(C)cc1)c1ccccc1)c1ccccc1
## Output met

## Input For this molecule, is E (1%, 1 cm) lower than 800? CCCCC(CC)COC(=O)C(=O)/C(=C/N1CCc2cc(C(=O)OC)ccc21)c1ccccc1 (stereo not drawn)
## Output not met
